# experiment.description: amyloid nucleation score (Sup35N fusion, yeast selection) (log enrichment); library NNK2; higher = more nucleation; inactive = no reads after selection;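 also: zero at mode of non-aggregating sequences after 7 days selection at 30°C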
readout: amyloid nucleation score
Lab note: jot down the number only; don't add units.

INSERT INTO measurements (sequence_entry, test_value) VALUES
  ('SLTGSQSGQGDLCVLVRYNH', 3.84),
  ('DGRADFYSCVCLYYSWNGY', 3.62);

Problem: What value of amyloid nucleation score has been reported for the following sequence? IYMRRCSVLGSHCH
Result: 0.081

Problem: Which measured amyloid nucleation score value corresponds to GAGLRCLFGNSGYGERCVTM ?
Result: 0.82

Problem: Looking for the measured amyloid nucleation score of LLFQNLIRRLCSMCQFGGCV , can you help?
Result: -0.531

Problem: Which amyloid nucleation score is listed for KLYKCQRQCPALAKVTYGYK ?
Result: 0.332

Problem: Please give the measured amyloid nucleation score for this sequence: LKAWYYSVYSRTVTYSPMLH
Result: -1.03

Problem: Given the entry LSESRRQVASASDLMKRRIP , report its measured amyloid nucleation score.
Result: 1.24

* * *

# experiment.description: amyloid nucleation score (Sup35N fusion, yeast selection) (log enrichment); library NNK3; higher = more nucleation; inactive = no reads after selection
readout: amyloid nucleation score

INSERT INTO measurements (substance, readout, test_value) VALUES
  ('LNCLRMSLLC', 'amyloid nucleation score', 'inactive'),
  ('VMGDSVRIAELQIWAEINGL', 'amyloid nucleation score', 1.07),
  ('NCFMSLASSNTR', 'amyloid nucleation score', 'inactive'),
  ('NWIVGSWCKVLSVVEKEW', 'amyloid nucleation score', 0.101),
  ('PRYGEVGATSFSDVTETML', 'amyloid nucleation score', 'inactive'),
  ('RAPAMGL', 'amyloid nucleation score', 'inactive');

Problem: # input substance: MLHLGTCEIILAYHHDMKML ; wanted: its amyloid nucleation score
Result: inactive

* * *

Listed here are substances together with their documented amyloid nucleation score.
# experiment.description: amyloid nucleation score (Sup35N fusion, yeast selection) (log enrichment); library NNK1; higher = more nucleation; inactive = no reads after selection
# output: bare number, no unit

Completed entries (count: 5):
INSERT INTO assay_data (substance, test_value) VALUES
  ('LMSTVIVESVVIWGMAARVQ', 2.62),
  ('CIGNCYGWLSDLSWWSCPSS', 0.676),
  ('YFSFIWMYKMDIMTI', -0.117),
  ('SSSSVVLTRLQPTTGSYEMT', -0.667),
  ('RCGRAINGVQCVHWFVMSEG', 0.429);

Problem: Could you tell me which amyloid nucleation score is on file for KYVIKCTSWVGAMTHSSSKA ?
Result: 0.333

Problem: Any idea what its amyloid nucleation score is? The substance is RGFLRRHGGKGFNVLQAVGR
Result: 1.16

Problem: Any idea what amyloid nucleation score was measured for YARGMCWVRVWLNVQVSAWS ?
Result: 0.398

Problem: Look up amyloid nucleation score: HLCVTTGSSLL
Result: -0.58

Problem: # lookup: amyloid nucleation score of LRSIRVPP
Result: -0.005

Problem: Entry TYHVSEV has what amyloid nucleation score?
Result: -0.175

Problem: Data request, read-out amyloid nucleation score, for VNDLSCIGVGGDAKDNREGN
Result: 1.34

Problem: Report amyloid nucleation score for AAWMWWTLLSTY please.
Result: -0.377

Problem: Given IDKSVGLVHKTHYWFQPWYK , state its recorded amyloid nucleation score.
Result: 0.445

Problem: Sample QKWNMFVSSWVYDRRRTRGC — what was its amyloid nucleation score?
Result: 0.301

Problem: Give the measured amyloid nucleation score of NNRKYLGRNMAANWGAWFKR .
Result: -0.395

Problem: Tell me the measured amyloid nucleation score of QNVRSLVHSYLKGTNSSLVG , please.
Result: -0.01

Problem: // returns reported amyloid nucleation score for input ERQLKEEY
Result: 0.06

Problem: What value of amyloid nucleation score has been reported for the following substance? VKGSGGGWFERNSGAPRKVF
Result: 1.03

Problem: I would be grateful if you could share the reported amyloid nucleation score for PGLMDLSVCKKCWNCCYTYD .
Result: -0.294

Problem: What value of amyloid nucleation score has been recorded for this entry: RGIAVWCTN
Result: 0.286

Problem: // query amyloid nucleation score value for entry VLVRAWTLDCCLLFVMMVVS
Result: 0.558

Problem: Which amyloid nucleation score reading was recorded for the substance SGCPDPW ?
Result: -0.047

* * *

# experiment.description: amyloid nucleation score (Sup35N fusion, yeast selection) (log enrichment); library NNK2; higher = more nucleation; inactive = no reads after selection
Label scheme for amyloid nucleation score: lower than 0.2 is NOT MET, 0.2 and above is MET.

INSERT INTO assay_data (substance, category) VALUES
  ('CDFMYRLMSTYTHTFLVSLR', 'MET'),
  ('WFAGFMCRVLACTFSALKLS', 'NOT MET'),
  ('VSKLNLLNIHCAKPFLLEL', 'MET'),
  ('CKSFNSFSETPKYAKVVPRA', 'MET'),
  ('WFGYMALPR', 'MET'),
  ('SSSLSWLS', 'NOT MET'),
  ('FYKNAP', 'NOT MET'),
  ('VTYFTILNHMCW', 'MET'),
  ('DLFGCFVNCRSRL', 'MET'),
  ('ERMSLMGWDFIKCRISLAMS', 'NOT MET');

Problem: Hello, I need to know if WMCRSTAMIHSRSDCV has measured amyloid nucleation score not below 0.2. Thanks!
Result: MET

Problem: Evaluate VGKVFLIPGSFYEIRLMTYF : amyloid nucleation score at minimum 0.2?
Result: MET

Problem: Please indicate if the recorded amyloid nucleation score for DTSAIFSYALLL meets or exceeds 0.2.
Result: MET

Problem: Kindly determine if amyloid nucleation score recorded for SQKLSIQYQLRYFILLVKPR is above or exactly 0.2.
Result: NOT MET

Problem: Check the entry LTPLICADNLD : does amyloid nucleation score equal or exceed 0.2?
Result: NOT MET

Problem: For this substance, is measured amyloid nucleation score 0.2 or higher? DIAKLLCYILCFNGKSRRWG
Result: NOT MET

Problem: Determine whether this substance has amyloid nucleation score no lower than 0.2: FGLWQVPSGWNTADRA
Result: MET

Problem: Threshold query (amyloid nucleation score >= 0.2) on KIWHLSQYCAVFSLVFKGLN
Result: MET

* * *

# experiment.description: amyloid nucleation score (Sup35N fusion, yeast selection) (log enrichment); library NNK3; higher = more nucleation; inactive = no reads after selection
readout: amyloid nucleation score

Consider the reported amyloid nucleation score for these substances:
INSERT INTO results (substance, test_value) VALUES
  ('NWDFFKLKVNSHLTYAHDHR', 'inactive'),
  ('NMPYSCKRLWRDKCQMWEYR', 'inactive'),
  ('NIPVSYYVVNGLIAEMLFIS', 0.409),
  ('TYGTCVGQK', 'inactive'),
  ('FFYNYSRSGLCYIIFSESPV', 1.33),
  ('PDWVVPDGGIVTGIVGWCSG', 'inactive'),
  ('TNYFESFY', -0.052),
  ('LLSFLTVRLCVFRTYFW', 'inactive'),
  ('ESTGMPTALYSLAVTVRVDK', 0.016),
  ('SMSWRSHEAMCTGSYFNLCD', 'inactive');

Problem: Which amyloid nucleation score is listed for HGVPSLLICWRVLNRSIFMV ?
Result: inactive

Problem: Look up amyloid nucleation score for this substance: RNEWCFSKPILEYHCRMDVF
Result: inactive

Problem: Report amyloid nucleation score for MHLDYGC please.
Result: inactive

Problem: // amyloid nucleation score lookup, key: DRDMVCMSEL
Result: inactive

Problem: Form field: reported amyloid nucleation score of VVICILQLHQYFFNYVH
Result: 2.11

Problem: Can you look up the measured amyloid nucleation score of VKLALRTAFVGSQVYRILRA for me?
Result: -0.076

* * *

# experiment.description: amyloid nucleation score (Sup35N fusion, yeast selection) (log enrichment); library NNK1; higher = more nucleation; inactive = no reads after selection
Just so you know, the groups by amyloid nucleation score go like this: Low (below 0.3), Medium (0.3 to below 0.6), High (0.6 or more)

INSERT INTO assay_data (sequence_entry, category) VALUES
  ('SNYYWVAWGDSPLQVHP', 'High');

Problem: The entry to classify is THMGRTLSCFGMMSWSSDVA ; which class holds it?
Result: High

Problem: For the record TTMIRSYFREDYGQGPLMSW , report the class its amyloid nucleation score corresponds to.
Result: Medium

Problem: Consider SIDCLCYYAPRLFRMHVELT . To which amyloid nucleation score class does it belong?
Result: Low

Problem: # classify by amyloid nucleation score band: ATLEGVCNINHPSCCASLLD
Result: Low

Where these numbers come from: the supplement of paper PMC12042874
